target-or-test-system: HLA-DR DRB1*1101 (DR11) (Homo sapiens, UniProt P01903+P01911, A100R/A169T/A87E/I96F/K41T/L162R/M171V/P40S/Q125H/Q178H/Q39Y/Q99D/R42S/S66Y/T262R/V115G/W38E)
Sequence (P01903 26-254 limits assumed, other chains not shown): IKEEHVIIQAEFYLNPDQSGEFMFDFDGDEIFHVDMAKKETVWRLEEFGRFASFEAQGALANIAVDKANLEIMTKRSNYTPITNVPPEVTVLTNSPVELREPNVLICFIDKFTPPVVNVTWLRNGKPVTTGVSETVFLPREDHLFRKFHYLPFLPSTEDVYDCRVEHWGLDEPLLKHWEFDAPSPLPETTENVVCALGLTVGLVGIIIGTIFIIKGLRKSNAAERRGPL
test-name: biochemical
Format: binding
experimental-parameters: DRB1 *1101
pIC50: −log10 of the molar value. No end group written: not given here.
readout-type: pIC50

### Prompt Need pIC50 of TEGRCLHYTVDKSKPK , thanks.
### Response < 5.90

### Prompt Need pIC50 of CYSLYGTTLEQQYNK , thanks.
### Response < 4.83

### Prompt Need pIC50 of YEEYVRFDSDVGE , thanks.
### Response ≤ 3.70

### Prompt Need pIC50 of FVNQHLCGSHLVEAL [FVNQHLCGSHLVEAL] , thanks.
### Response < 2.95

### Prompt Need pIC50 of RQDILDLWVYHTQGY , thanks.
### Response < 4.29

### Prompt Need pIC50 of KDYILDLQPETTDLH , thanks.
### Response < 4.76
